System: SN12C
Assay: NCI tumour cell line growth inhibition, 48 h
Activity calls are given as the source filed them. No stated cut-off is given here; in the data, active = GI50 up to about 1.1 µM and inactive = higher.
Your answer must be one of the following: 1 = active, 0 = inactive

Ask: Identify the outcome logged in this assay for the compound shown: O=C1C(Cl)=C(N(C(=O)c2ccccc2)C(=O)c2ccccc2)C(=O)c2ccccc21
Result: 0

Ask: And the next one, COC(=O)CC1c2ccccc2N2C(=O)Cc3c([nH]c4ccccc34)C12 (centres undefined) ?
Result: 0

Ask: Item: CCO/C=N/NC(=O)CSc1nc2ccc(I)cc2c(=O)n1Cc1ccccc1
Result: 0

Ask: Then what about the compound CCOC(=O)C1=C(OC(OCC)C(CC)[Se]c2ccccc2)CCC1 (centres undefined) ?
Result: 0

Ask: Also need COC(=O)C12CCC(CC1=O)C2(C)C (centres undefined) , thanks.
Result: 0

Ask: Same thing, different compound: Cc1cc(C)nc(NS(=O)(=O)c2ccc(Nc3c4ccccc4nc4c(C(=O)Nc5ccc(S(=O)(=O)N=C(N)N)cc5)cccc34)cc2)n1
Result: 0

Ask: // next record Cc1ccc(-c2c(C#N)c(-c3ccccc3)c(C#N)c(=O)n2NS(=O)(=O)c2ccc(C)cc2)cc1
Result: 0

Ask: Then what about the compound CCCCCCCCCCCCCCCCCCNc1ccn(C2OC(COP(=O)(O)OCC3CCC(n4cnc5c(=O)[nH]cnc54)O3)C(O)C2O)c(=O)n1 (centres undefined) ?
Result: 0

Ask: Same lookup for COc1ccc2c3c(c4cc(OC)c(OC)cc4c2c1)CN1CCC[C@H]1[C@@H]3O [TYLOPHORININE] , please.
Result: 1

###

Tested on: DMS-273
Assay: NCI tumour cell line growth inhibition, 48 h
Calls of active or inactive are those of the source. No stated cut-off is given here; in the data, active = GI50 up to about 1.1 µM and inactive = higher.
Would you mind telling me the reported GI50 of each entry?

Ask: Return reported GI50; argument: O=[N+]([O-])c1cccc(C2SCc3nc4ccccc4n32)c1 (configuration not stated)
Result: 85.7 µM (inactive)

Ask: Same again, this time with CC1=CC(=O)NP(=O)(Oc2ccc(Cl)cc2)N1 (configuration not stated)
Result: > 100 µM (inactive)

Ask: Same for Nc1c(S(=O)(=O)O)cc2cc(S(=O)(=O)O)ccc2c1/N=N/c1ccc(-c2ccc(/N=N/c3c(N)c(S(=O)(=O)O)cc4cc(S(=O)(=O)O)ccc34)c(S(=O)(=O)O)c2)cc1
Result: > 100 µM (inactive)

Ask: What do you get for O=C1NC(=O)C2C(=O)NC(=O)C1C2(c1ccccc1)c1cc[nH]c1 (configuration not stated) ?
Result: > 100 µM (inactive)

Ask: Now the same for NC(=S)N/N=C(\C(=O)Nc1ccc(Cl)c(Cl)c1)C1=NN(c2ccccc2)C(c2cccc([N+](=O)[O-])c2)CC1=O (configuration not stated)
Result: 11.7 µM (inactive)

Ask: Entry CN1OC(CO)CC12C1CC3CC(C1)CC2C3 (configuration not stated) please
Result: > 100 µM (inactive)

Ask: Repeat with N#CC(C(=O)C(N)=O)c1ccccc1Cl (configuration not stated)
Result: > 100 µM (inactive)

###

Provide the recorded GI50 for the entries that follow.
System: OVCAR-5
Assay: NCI tumour cell line growth inhibition, 48 h
Activity calls are given as the source filed them. Rule as the data show it: active = GI50 up to about 1.1 µM and inactive = higher.

Ask: What value of GI50 on OVCAR-5 does COc1ccc(C)cc1NC(=S)C#N have?
Result: 29.6 µM (inactive)

Ask: Next compound: O=c1n(-c2ccc(Cl)c(Cl)c2)c(=O)n(-c2ccc(Cl)c(Cl)c2)c(=O)n1-c1ccc(Cl)c(Cl)c1
Result: 3.63 µM (inactive)

Ask: # repeat for CSc1c(C#N)c(=O)[nH]c2[nH]nc(C)c12
Result: > 100 µM (inactive)

Ask: Queued: CC(C)(C)C1=Cc2cc3cc(C(C)(C)C)[nH]c(=O)c3cc2S(=O)(=O)N1
Result: 33.7 µM (inactive)

Ask: Can you check CC1=C(C(=O)Nc2cccc(Cl)c2)C(c2ccccc2O)C(C(=O)Nc2cccc(Cl)c2)=C(C)N1 next?
Result: 19.4 µM (inactive)

###

Answer each item with its documented GI50.
Tested on: BT-549
Experiment: NCI tumour cell line growth inhibition, 48 h
Active and inactive are the calls of the source. No stated cut-off is given here; in the data, active = GI50 up to about 1.1 µM and inactive = higher. Where a SMILES comes first, the peptide text is derived from it. [ ]: non-standard residue; d: D form. The star is where a group is joined. ξ: configuration not given here. ξPhe(4-NO2) = NC(Cc1ccc([N+](=O)[O-])cc1)C(=O)O; Boc = CC(C)(C)OC(=O)*; OBn = c1ccc(CO*)cc1

Ask: Find the measured GI50: item O=C(NC12CC3CC(CC(C3)C1)C2)n1cnc2cncnc21 , target or system BT-549.
Result: 46.8 µM (inactive)

Ask: Thanks! And CC1C(OS(=O)(=O)c2ccc3nc(S)sc3c2)CC2C3(C)CCC2(C(C)C(=O)O)C(O)C13 (stereo not given) ?
Result: 24.9 µM (inactive)

Ask: Okay, and CC1(C)CC(=O)c2c(N)n[nH]c2C1 ?
Result: > 100 µM (inactive)

Ask: Now the same for CCOC(=O)N1CCN(c2ccc3ccc(N)nc3n2)CC1
Result: > 100 µM (inactive)

Ask: Another: O=c1n(-c2ccc(Cl)c(Cl)c2)c(=O)n(-c2ccc(Cl)c(Cl)c2)c(=O)n1-c1ccc(Cl)c(Cl)c1
Result: 2.88 µM (inactive)

Ask: Field entry: CC(C)(C)OC(=O)NC(Cc1ccc([N+](=O)[O-])cc1)C(=O)NCC(=O)OCc1ccccc1 (stereo not given) (Boc-[ξPhe(4-NO2)]-Gly-OBn)
Result: 25.7 µM (inactive)

Ask: Now the compound CC1=CC2(O)OC3(CC2=C(C)C)C(C)CCC13 (stereo not given)
Result: > 100 µM (inactive)

Ask: Same thing, different compound: NC1(C(=O)O)CCCC1C(=O)O (stereo not given)
Result: > 100 µM (inactive)

Ask: Subsequent entry: S=CN1CCCCC1
Result: > 100 µM (inactive)

Ask: How about OC1(c2cc3ccccc3s2)CCCCC1 ?
Result: 55.7 µM (inactive)

Ask: Same thing, different compound: Cc1cc(C)nc(NS(=O)(=O)c2ccc(NNc3c4ccccc4nc4c(C(=O)Nc5ccc(S(=O)(=O)Nc6cc(C)on6)cc5)cccc34)cc2)n1
Result: 72.1 µM (inactive)

Ask: Another: CC(=O)C1(c2ccccc2)CCN(Cn2sc3nc(C)cc(C)c3c2=O)CC1
Result: 38.8 µM (inactive)

Ask: # repeat for c1ccc2c(c1)nc1n2CCCn2ccnc2-1
Result: > 100 µM (inactive)

Ask: What about this compound? Nc1nc(CCl)nc(N2CCOCC2)n1
Result: 31.7 µM (inactive)

Ask: Another: Fc1cc(-c2ncc(Cl)cc2Cl)c2cccccc1-2
Result: > 100 µM (inactive)

Ask: Then NC(=S)NS(=O)(=O)c1ccc(Cl)cc1 ?
Result: > 100 µM (inactive)

Ask: Continue with COc1cc2c(cc1C[C@H]1[C@@H]3C[C@H]4c5c(c6ccccc6n5C)C[C@@H]([C@@H]3CO[C@]1(C)OC(C)=O)N4C)c1c(n2C)C2C[C@H]3C(C(C)=O)=COC[C@H]3[C@H](C1)N2C
Result: 3.29 µM (inactive)

Ask: Also O=c1oc2c(ccc3ccccc32)cc1C1=CSC2=NCCN12 ?
Result: 26.2 µM (inactive)

Ask: Repeat with CCOC(=O)c1cn(CC)c(=O)n2c1nc1ccccc12
Result: 56.9 µM (inactive)

Ask: What do you get for Cc1cccc2c1Oc1ncccc1C2NC(=O)CN(C)C (stereo not given) ?
Result: > 10 µM (inactive)

Ask: Then what about the compound C=C1CC[C@@]2(OC1)OC1C[C@H]3[C@@H]4CC=C5C[C@@H](O)CC(OC6OCC(OC(=O)[C@@H](O)[C@@H](C)CC)C(OC(C)=O)C6OC6OC(C)C(O)C(O)C6O)[C@]5(C)[C@H]4CC[C@]3(C)C1[C@@H]2C (stereo not given in full) ?
Result: 3.76 µM (inactive)

Ask: Also Cc1ccc(C)n1-n1c(-c2ccccc2)n[nH]c1=O ?
Result: > 100 µM (inactive)

Ask: Now consider O=C(OCC1CCCN2CCCCC12)c1ccncc1 (stereo not given) and answer again.
Result: > 100 µM (inactive)

Ask: Please do the same for CNC(=O)OCc1c(COC(=O)NC)c(-c2ccc(-c3ccccc3)cc2)n(C)c1C as well.
Result: 1.21 µM (inactive)

Ask: Input O=C(Nc1ccccc1F)c1cc2ccc(O)cc2o/c1=N\c1cccc(C(F)(F)F)c1
Result: 2.67 µM (inactive)

Ask: Now the compound CCOc1ccc(N2C(=O)NC3(c4ccccc4)N(C)C(=O)N(C)C23c2ccccc2)cc1 (stereo not given)
Result: 83.9 µM (inactive)

Ask: Same read-out for CCOC(=O)c1c(SCCN2CCCC2)n(-c2ccccc2)c(=S)n(-c2ccccc2)c1=O ?
Result: 5.37 µM (inactive)

Ask: Likewise for S=c1oc(CCCCCCCCc2nn(CNc3ccccc3)c(=S)o2)nn1CNc1ccccc1 ?
Result: > 100 µM (inactive)

Ask: Another: O=C1C(=O)N(c2cccc(C(F)(F)F)c2)C(=O)C(=O)C1c1nc2ccccc2s1
Result: > 100 µM (inactive)

Ask: What about this compound? CCOC(=O)/C=C(/OCC)[C@@H]1C(C(=O)c2ccc(Cl)cc2)[C@H]1/C(=C\C(=O)OCC)OCC (stereo not given in full)
Result: > 100 µM (inactive)

Ask: How about NS(=O)(=O)c1nnc(NC(=O)CCC(=O)O)s1 ?
Result: > 100 µM (inactive)

Ask: Consider next the compound O=C1c2c(F)c(F)c(F)c(F)c2SC2=NCCN12 in the same way.
Result: 14.8 µM (inactive)

Ask: And the next one, c1ccc2c(c1)Cn1c-2nc2ccccc21 ?
Result: > 100 µM (inactive)

Ask: Try this compound too: O=P1(Oc2ccccc2)NCc2ncccc2O1 (stereo not given)
Result: > 100 µM (inactive)

Ask: Follow-up item: N#Cc1c(N)nc(Sc2ccccc2N)c(C#N)c1-c1ccc(Cl)cc1
Result: 4.21 µM (inactive)

Ask: Now consider COc1ccc(-c2c3c(n(C4OC(CO)C(O)C(O)C4O)c(=S)c2C#N)CC(C)(C)CC3=O)cc1 (stereo not given) and answer again.
Result: > 100 µM (inactive)

Ask: What do you have for Cc1cnc2sn(-c3ccc([N+](=O)[O-])cc3)c(=O)c2c1 ?
Result: 43.2 µM (inactive)

Ask: Check C[C@H]1CC[C@@]2(OC1)O[C@H]1C[C@H]3[C@@H]4CC[C@@H]5C[C@@H](OC6OC(CO)C(O)C(O)C6OC6OC(CO)C(O)C(O)C6O)CC[C@]5(C)[C@H]4CC[C@]3(C)[C@H]1[C@@H]2C (stereo not given in full) too.
Result: 2.35 µM (inactive)

Ask: Try the compound Cc1nn(-c2ccccc2)c2nc3c(c(C)nn3-c3ccccc3)c(-c3ccccc3Br)c12
Result: > 100 µM (inactive)

Ask: What would you report for CC(=O)NCC1OC2COC(c3ccccc3)OC2C2N=C(c3ccccc3)OC12 (stereo not given) ?
Result: 68.1 µM (inactive)
